Experiment: chemical genetic growth profiling, strain panel (AID 1159580);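 also: tested at 20 µM; growth read once vehicle control cultures reached saturation at 30 °C; 1 = growth at the plate median or of vehicle wells; lower values mean less growth of the strain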
Settings: S. cerevisiae deletion strains, growth OD, locus YNL209W, strain ssb2, stronger effect = lower value
The campaign covered roughly 5,500 compounds. About 2,000 (36%) were called active. Inconclusive results (about 18%) are left out. The list shows a part of the results.
Catalogue of compounds with associated normalized growth

COMPOUND	normalized growth
CSc1nc(NC(C)C)nc(NC(C)C)n1	0.987
CC1(C)O[C@@H]2CC3C4C[C@H](F)C5=CC(=O)CC[C@]5(C)C4[C@@H](O)C[C@]3(C)[C@]2(C(=O)CO)O1 (stereo partly drawn)	0.999
COc1ccccc1N1CCN(CCCNc2cc(=O)n(C)c(=O)n2C)CC1	1.01
C[C@H]1O[C@H](O[C@H]2[C@H](O)[C@@H](O)[C@@H](O[C@H]3[C@H](O)[C@@H](O)C(O)O[C@@H]3CO)O[C@@H]2CO)[C@H](O)[C@@H](O)[C@@H]1N[C@H]1C=C(CO)[C@@H](O)[C@H](O)[C@H]1O (stereo partly drawn)	1.01
NC[C@@H]1O[C@H](O[C@@H]2[C@@H](CO)OC(O[C@@H]3[C@@H](O)[C@H](N)C[C@H](N)[C@H]3O[C@H]3O[C@H](CO)[C@@H](O)[C@H](O)[C@H]3N)[C@@H]2O)[C@H](N)[C@@H](O)[C@@H]1O (stereo partly drawn)	0.999
Nc1ccc(S(=O)(=O)Nc2ncccn2)cc1	0.967
NCC(O)CC(=O)O (stereo not drawn)	0.985
NS(=O)(=O)c1cc2c(cc1C(F)(F)F)NC(Cc1ccccc1)NS2(=O)=O (stereo not drawn)	0.993
NC(=O)c1cc([N+](=O)[O-])cc([N+](=O)[O-])c1	1.01
CC(C)Nc1nc(Cl)nc(NC(C)C)n1	0.999
CCCc1nc(C)c2c(=O)[nH]c(-c3cc(S(=O)(=O)N4CCN(CC)CC4)ccc3OCC)nn12	0.978
O=C(O)C1=CC(=C(c2ccc(O)c(C(=O)O)c2)c2ccc(O)c(C(=O)O)c2)C=CC1=O	0.952
COc1cccc2c1CCC1=CC(=O)CC[C@@]12C	1.02
CC1(C)S[C@@H]2[C@H](NC(=O)[C@@H](N)c3ccc(O)cc3)C(=O)N2[C@H]1C(=O)O	0.995
CCC(=O)NCC[C@@H]1CCc2ccc3c(c21)CCO3	1.01
CC1(C)S[C@@H]2[C@H](NC(=O)C(C(=O)O)c3ccccc3)C(=O)N2[C@H]1C(=O)O (stereo partly drawn)	0.969
CCCc1nn(C)c2c(=O)[nH]c(-c3cc(S(=O)(=O)N4CCN(C)CC4)ccc3OCC)nc12	0.99
Nc1nc(/C(=C/CC(=O)O)C(=O)N[C@@H]2C(=O)N3C(C(=O)O)=CCS[C@H]23)cs1	0.994

###

Assay: chemical genetic growth profiling, strain panel (AID 1159580);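 also: tested at 20 µM; growth read once vehicle control cultures reached saturation at 30 °C; 1 = growth at the plate median or of vehicle wells; lower values mean less growth of the strain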
Conditions: S. cerevisiae deletion strains, growth OD, locus YHR082C, strain KSP1, stronger effect = lower value
Hit rate of the full screen: of about 5,500 compounds, about 2,000 (36%) were called active. Another 18% or so got no clear call; they are omitted. The list shows a part of the results.
RECORDED METRIC: normalized growth

In [3]: df
Out[3]:
                                   molecule    recorded_metric  number
0  O=C(O/N=C1/CCCc2[nH]c3ccccc3c21)c1ccc(Cl)cc1Cl  normalized growth   0.943
1   COc1ccc(N=C2SCC(c3ccc(C)cc3)=NN2CCO)cc1  normalized growth   0.991
2  Clc1cccc(Cl)c1C1CC(c2ccccc2)=Nc2ccccc2S1 (stereo unspecified)  normalized growth    1.02
3  CCOC(=O)NC(=S)Nc1ccc(C(C)(C)C)cc1NC(=S)NC(=O)OCC  normalized growth    1.05
4                   CCCCCCCCCCCCSc1ncn[nH]1  normalized growth   0.209
5  O=C(O/N=C1/CCCc2[nH]c3ccccc3c21)C1CCCCC1  normalized growth   0.899
